Recorded values, source patent US20080161247A1.

# TEST_SYSTEM: Plasmodium falciparum enoyl-Acyl carrier protein (ACP) reductase (PfENR) (Plasmodium falciparum, UniProt Q9BH77)
# PROTOCOL_DETAILS: biochemical
# MEASUREMENT_PARAMETERS: Ki w.r.t. NADH [μM], Dixon plot, competitive; NADH 50, 100, 200 μM; crotonoyl-CoA 200 μM
Listed below: Ki values for each entry.
Give just the number in µM; leave the unit off.

// worked examples, Ki included
COMPOUND | MEASURED_RESULT
Oc1cc(O)c2c(c1)O[C@H](c1cc(O)c(O)c(O)c1)[C@H](O)C2 [EGC, (−) epigallocatechin] | 3.75
O=c1c(O)c(-c2ccc(O)c(O)c2)oc2cc(O)cc(O)c12 [Quercetin, quercetin] | 1.09
O=C(O[C@@H]1Cc2c(O)cc(O)cc2O[C@@H]1c1ccc(O)c(O)c1)c1cc(O)c(O)c(O)c1 [ECG, (−) epicatechin gallate] | 0.291

Now, please, on to the next compound.
Prompt: // query Ki value for entry O=C(/C=C/c1ccc(O)c(O)c1)c1ccc(O)cc1O [Buteine, butein]
Response: 5.5

---

# TEST_SYSTEM: PfENR (Plasmodium falciparum, UniProt Q9BH77)
# Construct: The overexpression of PfENR was carried out [22]; made in house
# Assay type: biochemical
# MEASUREMENT_PARAMETERS: triclosan with PfENR in presence of the catechin
Listed below: Association rate constant k5 of triclosan values for each entry.

Prompt: Quick check: Association rate constant k5 of triclosan on PfENR (Plasmodium falciparum, UniProt Q9BH77), item O=C(/C=C/c1ccc(O)c(O)c1)c1ccc(O)cc1O [Buteine, butein] ?
Response: 2.1 ± 0.108 [10^−3]s^−1

Prompt: Quick check: Association rate constant k5 of triclosan on PfENR (Plasmodium falciparum, UniProt Q9BH77), item Oc1cc(O)c2c(c1)O[C@H](c1cc(O)c(O)c(O)c1)[C@H](O)C2 [EGC, (−) epigallocatechin] ?
Response: 5.4 ± 0.097 [10^−3]s^−1

Prompt: Quick check: Association rate constant k5 of triclosan on PfENR (Plasmodium falciparum, UniProt Q9BH77), item O=C(O[C@@H]1Cc2c(O)cc(O)cc2O[C@@H]1c1ccc(O)c(O)c1)c1cc(O)c(O)c(O)c1 [ECG, (−) epicatechin gallate] ?
Response: 6.3 ± 0.135 [10^−3]s^−1

Prompt: Quick check: Association rate constant k5 of triclosan on PfENR (Plasmodium falciparum, UniProt Q9BH77), item O=c1c(O)c(-c2ccc(O)c(O)c2)oc2cc(O)cc(O)c12 [Quercetin, quercetin] ?
Response: 3.1 ± 0.0786 [10^−3]s^−1

---

# TEST_SYSTEM: Plasmodium falciparum enoyl-Acyl carrier protein (ACP) reductase (PfENR) (Plasmodium falciparum, UniProt Q9BH77)
# Sequence (Q9BH77 22-432): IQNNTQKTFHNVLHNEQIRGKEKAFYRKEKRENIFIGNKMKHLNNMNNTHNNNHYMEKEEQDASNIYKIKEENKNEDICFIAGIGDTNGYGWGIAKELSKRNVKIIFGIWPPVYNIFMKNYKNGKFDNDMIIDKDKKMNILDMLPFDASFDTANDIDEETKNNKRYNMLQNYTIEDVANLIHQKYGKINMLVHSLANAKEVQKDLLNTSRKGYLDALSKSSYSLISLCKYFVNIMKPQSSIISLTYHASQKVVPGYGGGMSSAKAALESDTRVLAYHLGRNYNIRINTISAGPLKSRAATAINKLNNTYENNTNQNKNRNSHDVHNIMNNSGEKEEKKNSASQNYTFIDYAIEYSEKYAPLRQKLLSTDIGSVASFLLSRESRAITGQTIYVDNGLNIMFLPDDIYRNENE
# PROTOCOL_DETAILS: biochemical
# MEASUREMENT_PARAMETERS: Ki in presence of TCL [nM], Ki of the catechin at 50 nM and 100 nM triclosan; Dixon plot
VALUE_TYPE: Ki (nM)
Give just the number in nM; leave the unit off.

// worked examples, Ki included
COMPOUND | UNIT_INFO | Ki
O=c1c(O)c(-c2ccc(O)c(O)c2)oc2cc(O)cc(O)c12 | nM | 22
Oc1cc(O)c2c(c1)O[C@H](c1cc(O)c(O)c(O)c1)[C@H](O)C2 [EGC, (−) epigallocatechin] | nM | 17.6
O=C(O[C@@H]1Cc2c(O)cc(O)cc2O[C@@H]1c1ccc(O)c(O)c1)c1cc(O)c(O)c(O)c1 [ECG, (−) epicatechin gallate] | nM | 16

Prompt: // query Ki value for entry O=C(/C=C/c1ccc(O)c(O)c1)c1ccc(O)cc1O
Response: 14
